System: SF-268
Assay: NCI tumour cell line growth inhibition, 48 h
Active and inactive are the calls of the source. Rule as the data show it: active = GI50 up to about 1.1 µM and inactive = higher. Where a SMILES comes first, the peptide text is derived from it. [ ]: non-standard residue; d: D form. The star is where a group is joined. ξ: configuration not given here. ξD = NC(CC(=O)O)C(=O)O; Ac3c = NC1(C(=O)O)CC1; Boc = CC(C)(C)OC(=O)*; OBn = c1ccc(CO*)cc1
Classes used: T for active, F for inactive

| Molecule | System | Label Value |
| --- | --- | --- |
| CC(C)[C@]12O[C@H]1[C@@H]1O[C@@]13[C@@]1(C)CCC4=C(COC4=O)[C@@H]1C[C@@H]1O[C@@]13C2=O [TRIPTONIDE] | SF-268 | T |
| COC(CNC(=O)C(C)NC(=O)/C=C/c1ccccc1)OC (stereo not drawn) | SF-268 | F |
| O=C(O)CN(CCNC(=O)OCC1c2ccccc2-c2ccccc21)CCNC(=O)OCC1c2ccccc2-c2ccccc21 | SF-268 | F |
| CCOC(=O)CCC(C(=O)OCC)n1nnc2cc(Nc3c(C)[n+]([O-])c4cc(Cl)ccc4[n+]3[O-])ccc21 (stereo not drawn) | SF-268 | F |
| Clc1nc(Nc2nc3ccccc3[nH]2)nc(Cl)c1Cc1ccccc1 | SF-268 | F |
| NN/C(=N\S(=O)(=O)c1cc2ccccc2s1)Nc1ccc(Cl)cc1 | SF-268 | F |
| C#CC[C@@]12CC(=O)C[C@@H]1CCC1(C2)OCCO1.C#CC[C@]12CC(=O)CC[C@H]1CC(=O)C2 | SF-268 | F |
| O=C1CCCc2ccc([N+](=O)[O-])c(O)c21 | SF-268 | F |
| Cc1ccc(S(=O)(=O)N/N=C(/CC(=O)c2c(C)[n+]([O-])c3ccccc3[n+]2[O-])C(=O)Nc2ccccc2C)cc1 | SF-268 | F |
| O=Cc1cc(C(=O)OCc2ccccc2)n(S(=O)(=O)c2ccccc2)c1 | SF-268 | F |
| O=C(NO)c1ccc(OCc2ccccc2)cc1 | SF-268 | F |
| CC1=CCCC(C)(O)C2CC(CCC3(C)OC3CC1)C(C)C(=O)O2 (stereo not drawn) | SF-268 | F |
| CN1/C(=C/C=C/C=C/C=C2C(=O)c3ccccc3C2=O)C(C)(C)c2ccccc21 | SF-268 | F |
| CC(Nc1ccc(Cl)c(Cl)c1)c1ccncc1 (stereo not drawn) | SF-268 | F |
| CC(C)COP(=O)(OCC(C)C)C(NS(=O)(=O)c1ccccc1)(C(F)(F)F)C(F)(F)F | SF-268 | F |
| COc1ccc(/C=C\c2cc(OC)c(OC(C)=O)c(OC)c2)cc1 | SF-268 | F |
| Cc1cc(NS(=O)(=O)c2ccc(Nc3c4ccccc4nc4c(C(=O)Nc5ccc(S(N)(=O)=O)cc5)cccc34)cc2)no1 | SF-268 | F |
| COc1ccc(/C=C(\NC(=O)c2ccccc2)c2nc3ccccc3[nH]2)cc1 | SF-268 | F |
| CC1=C(C(=O)NCc2ccccc2)C(/C=C/c2ccccc2)C(C(=O)NCc2ccccc2)=C(C)N1 | SF-268 | F |
| COC(=O)c1cc(Br)c(Br)n1C | SF-268 | F |
| COC(=O)C1(NC(=O)C(CC(=O)OCc2ccccc2)NC(=O)OC(C)(C)C)CC1 (stereo not drawn) (Boc-[ξD](OBn)-[Ac3c]-OMe) | SF-268 | F |
| CCCCCc1cccc(=O)o1 | SF-268 | F |
| CCSc1nc(N)c2c(-c3ccc(OC)c(OC)c3)c3c(nc2n1)CCCC3 | SF-268 | F |
